- assay.details: Metabolic stability in rat liver microsomes
- Type: in vitro ADME
- Description: Determination of Metabolic Stability in Human and Rat Liver Microsomes The incubations were conducted with 2.4 ml of HLM solution (protein content 0.5 mg/ml), 30 μl of the test compound (final concentration 1 μM) and 0.6 ml of the cofactor mixture (═NADPH-generating system composed of 3 IU glucose-6-phosphate dehydrogenase, 14.6 mg glucose-6-phosphate, 1.2 mg NADP) at 37° C. in 100 mM phosphate buffer at pH 7.4. […]
property.name: Predicted Fmax [%] (maximum oral bioavailability) Rat (%)

compound="C[C@]12C[C@H](c3ccc(/C=C/C#N)cc3)C3=C4CCC(=O)C=C4CC[C@H]3[C@@H]1CC[C@@]2(O)C(F)(F)C(F)(F)F [Example 14]" value_reported=75
compound="C[C@]12C[C@H](c3cccc(/C=C/c4cccnc4)c3)C3=C4CCC(=O)C=C4CC[C@H]3[C@@H]1CC[C@@]2(O)C(F)(F)C(F)(F)F [Example 22]" value_reported=77
compound="Cc1nc2cc(/C=C/c3ccc([C@H]4C[C@@]5(C)[C@@H](CC[C@@]5(O)C(F)(F)C(F)(F)F)[C@@H]5CCC6=CC(=O)CCC6=C54)cc3)ccc2s1 [Example 10]" value_reported=76

* * *

- assay.details: Metabolic stability in human liver microsomes
- Type: in vitro ADME
- condition.label: 1 μM, well-stirred model
property.name: Predicted clearance [l/h/kg] Human (L/h/kg)

Worked examples follow.
molecule=C[C@]12C[C@H](c3cccc(/C=C/c4ccncc4)c3)C3=C4CCC(=O)C=C4CC[C@H]3[C@@H]1CC[C@@]2(O)C(F)(F)C(F)(F)F unit_annotation=L/h/kg value_reported=0.4
molecule=C[C@]12C[C@H](c3ccc(/C=C/c4cccc(C(=O)O)c4)cc3)C3=C4CCC(=O)C=C4CC[C@H]3[C@@H]1CC[C@@]2(O)C(F)(F)C(F)(F)F unit_annotation=L/h/kg value_reported=0.35
molecule=C[C@]12C[C@H](c3ccc(/C=C/C(=O)O)cc3)C3=C4CCC(=O)C=C4CC[C@H]3[C@@H]1CC[C@@]2(O)C(F)(F)C(F)(F)F unit_annotation=L/h/kg value_reported=0.63
molecule=C=Cc1ccc([C@H]2C[C@@]3(C)[C@@H](CC[C@@]3(O)C(F)(F)C(F)(F)F)[C@@H]3CCC4=CC(=O)CCC4=C32)cc1 unit_annotation=L/h/kg value_reported=0.90

I. C[C@]12C[C@H](c3ccc(CO)cc3)C3=C4CCC(=O)C=C4CC[C@H]3[C@@H]1CC[C@@]2(O)C(F)(F)C(F)(F)F [Ref. 1, reference compound]
II. C[C@]12C[C@H](c3ccc(/C=C/c4ccncc4)cc3)C3=C4CCC(=O)C=C4CC[C@H]3[C@@H]1CC[C@@]2(O)C(F)(F)C(F)(F)F
Asked: Between I and II , which one has the lower reported Predicted clearance [l/h/kg] Human value? // caller expects the label of the chosen entry
Given back: II

* * *

- assay.details: Metabolic stability in human liver microsomes
- Assay type: in vitro ADME
- condition.label: 1 μM, well-stirred model
property.name: Predicted clearance [l/h/kg] Human (L/h/kg)

compound="CC(=O)/C=C/c1ccc([C@H]2C[C@@]3(C)[C@@H](CC[C@@]3(O)C(F)(F)C(F)(F)F)[C@@H]3CCC4=CC(=O)CCC4=C32)cc1 [Example 16]" unit_annotation=L/h/kg value_reported=1.02

1. C[C@]12C[C@H](c3ccc(/C=C/c4ccccn4)cc3)C3=C4CCC(=O)C=C4CC[C@H]3[C@@H]1CC[C@@]2(O)C(F)(F)C(F)(F)F [Example 6]
2. C[C@]12C[C@H](c3cccc(/C=C/c4cccnc4)c3)C3=C4CCC(=O)C=C4CC[C@H]3[C@@H]1CC[C@@]2(O)C(F)(F)C(F)(F)F [Example 22]
Asked: Between 1 and 2 , which one has the lower reported Predicted clearance [l/h/kg] Human value? // caller expects the label of the chosen entry
Given back: 1
(1: 0.21 L/h/kg, 2: 0.8 L/h/kg)

Provenance of the data: patent US9156877B2
